Hey, just so you know, these numbers are from paper PMC8876855.

Target: T1, GIRK1/2 channel (Mus musculus, UniProt P63250)
T1 chain 1: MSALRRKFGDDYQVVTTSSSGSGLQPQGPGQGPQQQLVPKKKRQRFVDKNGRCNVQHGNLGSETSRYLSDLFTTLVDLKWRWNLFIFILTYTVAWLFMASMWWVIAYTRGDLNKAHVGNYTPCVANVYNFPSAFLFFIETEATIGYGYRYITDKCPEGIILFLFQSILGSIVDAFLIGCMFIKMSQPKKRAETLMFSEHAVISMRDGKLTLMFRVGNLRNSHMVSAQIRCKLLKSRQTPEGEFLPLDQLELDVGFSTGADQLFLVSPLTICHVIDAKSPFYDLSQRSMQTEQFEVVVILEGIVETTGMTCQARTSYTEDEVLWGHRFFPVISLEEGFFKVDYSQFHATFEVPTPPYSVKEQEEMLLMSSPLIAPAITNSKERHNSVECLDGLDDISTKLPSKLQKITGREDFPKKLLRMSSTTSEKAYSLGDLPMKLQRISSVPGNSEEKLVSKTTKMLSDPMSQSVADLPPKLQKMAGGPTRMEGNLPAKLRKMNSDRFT
T1 chain 2: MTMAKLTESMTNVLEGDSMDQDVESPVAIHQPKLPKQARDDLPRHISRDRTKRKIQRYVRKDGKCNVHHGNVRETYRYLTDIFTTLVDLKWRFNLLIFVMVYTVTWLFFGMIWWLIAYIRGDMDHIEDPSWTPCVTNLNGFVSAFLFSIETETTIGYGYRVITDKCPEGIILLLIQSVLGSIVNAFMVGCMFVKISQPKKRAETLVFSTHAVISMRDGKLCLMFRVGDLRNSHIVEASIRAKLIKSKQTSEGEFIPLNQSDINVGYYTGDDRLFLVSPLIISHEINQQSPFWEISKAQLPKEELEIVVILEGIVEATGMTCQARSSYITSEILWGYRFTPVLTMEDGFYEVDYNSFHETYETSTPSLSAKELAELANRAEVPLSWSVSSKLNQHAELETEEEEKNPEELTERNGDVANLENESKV
Experiment: two-electrode voltage clamp kinetics (koff/kon) in Xenopus oocytes
MEASURE: Kd (µM)
Answer with a number only, understood to be in µM.

Query block: Return reported Kd. Input binder: AsKC11 (protein) INKDCLLPKVVGFCRARFPRYYYNSSSRRCEKFIYGGCGGNANNFSSYYECHIKCFGPR
Result block: 80.9
